assay: Inhibition of Plasmodium falciparum falcipain-3 expressed in Escherichia coli
quantity_kind: IC50 (nM)
Entry rule: numbers only, all in nM.

Input line: Value lookup for IC50; key = CC(C)CN(NC(=O)C(C)(C)c1ccc(CN2CCN(C)CC2)cc1)c1nc(C#N)ncc1Br
Output line: 21

Input line: Try the molecule CN1CCN(Cc2ccc(C(=O)NN(CCC3CCCC3)c3nc(C#N)ncc3Br)cc2)CC1
Output line: 45

Input line: Try the molecule CC(C)(C)OC(=O)NN(CC1CCOCC1)c1nc(C#N)ncc1Br
Output line: 85

Input line: Try the molecule CC(C)CN(NC(=O)c1cccc(Oc2ccccc2)c1)c1nc(C#N)ncc1Br
Output line: 116

Input line: Try the molecule CC(C)CN(NC(=O)c1ccc(-c2ccccc2)cc1)c1nc(C#N)ncc1Br
Output line: 1460

---

assay: Inhibition of Plasmodium falciparum falcipain-3 expressed in Escherichia coli
quantity_kind: IC50 (µM)
Entry rule: numbers only, all in µM.

Input line: Value lookup for IC50; key = CC(=O)N1CCC(N(NC(=O)OC(C)(C)C)c2nc(C#N)ncc2Br)CC1
Output line: 0.033

Input line: Try the molecule CC(C)CN(NC(=O)C1(c2ccc(Cl)cc2)CCCCC1)c1nc(C#N)ncc1Br
Output line: 1.65

Input line: Try the molecule CC(C)CN(NC(=O)c1cc2cc(OCCN3CCNCC3)ccc2o1)c1nc(C#N)ncc1Cl
Output line: 0.107

Input line: Try the molecule CC(C)(C)OC(=O)NN(CCC1CCCC1)c1nc(C#N)ncc1Br
Output line: 0.504

Input line: Try the molecule CN1CCN(Cc2ccc(C(=O)NN(c3nc(C#N)ncc3Br)C3CCC3)cc2)CC1
Output line: 0.173

Input line: Try the molecule CC(C)CN(NC(=O)C(C)(C)c1ccccc1)c1nc(C#N)ncc1Br
Output line: 0.06

Input line: Try the molecule C[C@@H]1CCC[C@H]1N(NC(=O)OC(C)(C)C)c1nc(C#N)ncc1Br (relative stereo)
Output line: 0.006

Input line: Try the molecule CC(C)CN(NC(=O)Cc1c(Cl)cccc1Cl)c1nc(C#N)ncc1Br
Output line: 0.066

Input line: Try the molecule CC(C)CN(NC(=O)c1ccc(CN2CCN(C)CC2)cc1)c1nc(C#N)ncc1Br
Output line: 0.055

Input line: Try the molecule CC(C)CN(NC(=O)c1ccc(N2CCOCC2)nc1)c1nc(C#N)ncc1Br
Output line: 0.053

---

assay: Inhibition of Plasmodium falciparum falcipain-3 expressed in Escherichia coli
quantity_kind: log10 IC50 (log10 of the value in nM)
Units before log transform: nM; reported quantity: IC50; transform: log10.

Input line: Value lookup for log10 IC50; key = CC(C)CN(NC(=O)c1ccnn1-c1ccccc1)c1nc(C#N)ncc1Cl
Output line: 1.80

Input line: Try the compound CC(C)CN(NC(=O)c1cc2cc(OCc3ccccc3)ccc2[nH]1)c1nc(C#N)ncc1Br
Output line: 3.67

Input line: Try the compound Cc1nc(-c2ccc3c(c2)CCO3)sc1C(=O)NN(CC(C)C)c1nc(C#N)ncc1Cl
Output line: 2.98

Input line: Try the compound CC(C)CN(NC(=O)c1cc(-c2ccccc2)no1)c1nc(C#N)ncc1Br
Output line: 2.56

Input line: Try the compound CC(C)CN(NC(=O)c1cccc2c1-c1ccccc1C2=O)c1nc(C#N)ncc1Br
Output line: 1.83

Input line: Try the compound CC(C)(C)OC(=O)NN(c1nc(C#N)ncc1Br)C1CCC1
Output line: 2.47

Input line: Try the compound CC(C)CN(NC(=O)c1cc(-c2ccccc2)ncn1)c1nc(C#N)ncc1Cl
Output line: 1.48

Input line: Try the compound CC(C)CN(NC(=O)c1ccc(-n2ccc(C(F)(F)F)n2)cc1)c1nc(C#N)ncc1Cl
Output line: 2.16

Input line: Try the compound CC(C)(C)OC(=O)NN(CC1CCCC1)c1nc(C#N)ncc1Br
Output line: 1.00

Input line: Try the compound CN1CCN(Cc2ccc(C(=O)NN(c3nc(C#N)ncc3Br)C3CCCCC3)cc2)CC1
Output line: 0.78
